# tested.target: T1, 4H968-bN
# T1 chain: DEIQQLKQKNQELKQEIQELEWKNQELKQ
# assay.text: two-hybrid library CCNG1;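 further: natural log of median RNA to DNA barcode read ratio; higher means stronger binding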
quantity.kind: interaction score

binder	interaction score
DEIQQLKQKIQELEQEIQELKWENQELKQ [4H780-bN]	-2.05

(P) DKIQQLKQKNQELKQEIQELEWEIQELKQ [4H3010-bN]
(Q) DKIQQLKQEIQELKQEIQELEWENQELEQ [4H2627-bN]
(R) DEIQQLKQENQELEQKIQELKWENQELEQ [4H683-bN]
Put the items in order so that reported interaction score rises from first to last. I would appreciate it if you listed the labels in the requested order. P, Q, R

(I) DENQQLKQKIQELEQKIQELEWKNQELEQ [4H1831-bN]
(II) DEIQQLEQKNQELKQEIQELKWEIQELEQ [4H457-bN]
(III) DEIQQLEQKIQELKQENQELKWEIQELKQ [4H346-bN]
(IV) DEIQQLKQEIQELEQKNQELKWKNQELEQ [4H575-bN]
(V) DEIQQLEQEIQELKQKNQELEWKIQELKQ [4H118-bN]
Hello, I need these entries ordered by interaction score, highest reading first. Thanks! I would appreciate it if you listed the labels in the requested order. V, I, III, IV, II

(a) DEIQQLKQKNQELKQEIQELEWKNQELKQ [4H968-bN]
(b) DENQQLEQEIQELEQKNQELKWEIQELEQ [4H1081-bN]
(c) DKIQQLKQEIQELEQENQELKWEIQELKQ [4H2586-bN]
Put the items in order so that reported interaction score rises from first to last. I would appreciate it if you listed the labels in the requested order. b, c, a
(b: -1.97, c: -1.31, a: 0.264)
